System name: KRas G12V (Homo sapiens, UniProt P01116, G12V);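 note: KRas binding measured by TR-FRET displacement at room temperature, IC50 fitted from percent of control values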
Sequence (P01116 1-169 isoform P01116-2 G12V): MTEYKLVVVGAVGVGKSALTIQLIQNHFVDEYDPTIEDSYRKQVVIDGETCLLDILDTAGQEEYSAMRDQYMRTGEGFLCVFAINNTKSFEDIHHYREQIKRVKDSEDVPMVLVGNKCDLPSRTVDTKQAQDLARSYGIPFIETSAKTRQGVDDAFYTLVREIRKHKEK
Assay protocol: biochemical
pIC50: −log10 of the molar value.
Endpoint: pIC50

Please review the entries below; each comes with its answer.
* OC[C@@H]1CCCN(c2nc(OCC34CCCN3CCC4)nc3c(F)c(-c4cccc5cccc(F)c45)ncc23)C1 | 5.19
* CCc1c(F)ccc2cc(O)cc(-c3ncc4c(N5CCCC6(CCS(=O)(=O)C6)C5)nc(OC[C@@]56CCCN5C[C@H](F)C6)nc4c3F)c12 (stereo partly drawn) | ≥ 8.70
* CCc1c(F)ccc2cc(O)cc(-c3ncc4c(N5CCC[C@@](C)(O)C5)nc(OC[C@@]56CCCN5C[C@H](O)C6)nc4c3F)c12 | ≥ 8.70
* CCc1c(F)ccc2cc(O)cc(-c3ncc4c(N5CCCC6(COC(=O)N6)C5)nc(OC[C@@]56CCCN5C[C@H](F)C6)nc4c3F)c12 (stereo partly drawn) | ≥ 8.70
* CCc1c(F)ccc2cc(O)cc(-c3ncc4c(NCc5c[nH]cn5)nc(OC[C@@]56CCCN5C[C@H](F)C6)nc4c3F)c12 | 8.52

Measured pIC50, CCc1c(F)ccc2cc(O)cc(-c3ncc4c(N5CCCCCC(S(C)(=O)=O)C5)nc(OC[C@@]56CCCN5C[C@H](F)C6)nc4c3F)c12 (stereo partly drawn) : ≥ 8.70

----------
System: pERK in PSN1 cells
Assay protocol: Inhibition of KRas phosphorylation of ERK (Cisbio HTRF pERK assay)
Test settings: Homo sapiens, PSN1, 3 h, read-out: Inhibition (HTRF IC50) of KRas-mediated Phosphorylation of ERK, PSN1
pIC50: −log10 of the molar value.
Endpoint: pIC50

• C#Cc1c(F)ccc2cc(O)cc(-c3ncc4c(N5CCCn6nc(C(=O)N(C)C)cc6C5)nc(OC[C@@]56CCCN5C[C@H](F)C6)nc4c3F)c12 = 5.17
• CCc1c(F)ccc2cc(O)cc(-c3ncc4c(N5CCCn6nc(C(=O)N(C)C)c(Cl)c6C5)nc(OC[C@@]56CCCN5C[C@H](F)C6)nc4c3F)c12 = 5.32

----------
Tested on: pERK in ASPC1 cells
Assay protocol: Inhibition of KRas phosphorylation of ERK (Cisbio HTRF pERK assay)
Test settings: Homo sapiens, ASPC1, read-out: Inhibition (HTRF IC50) of KRas-mediated Phosphorylation of ERK, AsPC-1
Endpoint: IC50 (nM)

Consider the reported IC50 for these compounds:
- CCc1c(F)ccc2cc(O)cc(-c3ncc4c(N5CCCC6(CCSC6)C5)nc(OC[C@@]56CCCN5C[C@H](F)C6)nc4c3F)c12 (stereo partly drawn) [Example 476]: 36
- CCc1c(F)ccc2cc(O)cc(-c3ncc4c(N5C[C@@H](CO)C[C@](C)(O)C5)nc(OC[C@@]56CCCN5C[C@H](F)C6)nc4c3F)c12 (mixture of isomers) [Example 327]: 23
- CCNC(=O)c1cc2n(n1)CCCN(c1nc(OC[C@@]34CCCN3C[C@H](F)C4)nc3c(F)c(-c4cc(O)cc5ccc(F)c(CC)c45)ncc13)C2 [Example 356]: 16
- CCc1c(F)ccc2cc(O)cc(-c3ncc4c(N5CCCC6(CCC6O)C5)nc(OC[C@@]56CCCN5C[C@H](F)C6)nc4c3F)c12 (stereo partly drawn) [Example 351]: 228
- CCc1c(F)ccc2cc(O)cc(-c3ncc4c(N5CCCCCC5)nc(OC[C@@]56CCCN5C[C@H](F)C6)nc4c3F)c12 [Example 317]: 40

[a] CCc1c(F)ccc2cc(O)cc(-c3ncc4c(N5CCCC6(CC(=O)N6)C5)nc(OC[C@@]56CCCN5C[C@H](F)C6)nc4c3F)c12 (stereo partly drawn) [Example 57]
[b] CCc1c(F)ccc2cc(O)cc(-c3ncc4c(N5CCCC6(CNS(=O)(=O)N6)C5)nc(OCC5(CN(C)C)CC5)nc4c3F)c12 (stereo not drawn) [Example 364]
# min-compare on IC50 between a and b Please respond with the label that marks your chosen entry. a
(a: 32 nM, b: 121 nM)

----------
System: pERK in ASPC1 cells
Assay protocol: Inhibition of KRas phosphorylation of ERK (Cisbio HTRF pERK assay)
Test settings: Homo sapiens, ASPC1, read-out: Inhibition (HTRF IC50) of KRas-mediated Phosphorylation of ERK, AsPC-1
pIC50: −log10 of the molar value.
Endpoint: pIC50

[I] CCc1c(F)ccc2cc(O)cc(-c3ncc4c(NCC(N)CC(=O)O)nc(OC[C@@]56CCCN5C[C@H](F)C6)nc4c3F)c12 (single isomer, unassigned)
[II] C#Cc1c(F)ccc2cc(O)cc(-c3ncc4c(N5CC6C(=O)NC(=O)C6C5)nc(OC[C@@]56CCCN5C[C@H](F)C6)nc4c3F)c12 (stereo partly drawn)
Which entry has a larger number for pIC50, I or II ? Selection: enter the item's label. II
(II: 6.57, I: 5.03)

[a] NS(=O)(=O)CC1CCCN(c2nc(OC[C@@]34CCCN3C[C@H](F)C4)nc3c(F)c(-c4cc(O)cc5ccc(F)c(Cl)c45)ncc23)C1 (stereo partly drawn)
[b] CCc1c(F)ccc2cc(O)cc(-c3ncc4c(N5CCCC6(C5)NC(=O)NC6=O)nc(OCC5(CN(C)C)CC5)nc4c3F)c12 (stereo not drawn)
[c] CN(C)C(=O)c1cc2n(n1)CCCN(c1nc(OC[C@@]34CCCN3C[C@H](F)C4)nc3c(F)c(-c4cc(O)cc5ccc(F)c(Cl)c45)ncc13)C2
[d] CCc1c(F)ccc2cc(O)cc(-c3ncc4c(N5CCCn6nc(C(=O)N(C)C)cc6C5)nc(OC[C@@]56CCCN5C[C@H](F)C6)nc4c3F)c12
[e] CCc1c(F)ccc2cc(O)cc(-c3ncc4c(N5CCCC(C#N)CC5)nc(OC[C@@]56CCCN5C[C@H](F)C6)nc4c3F)c12 (stereo partly drawn)
Put the items in order so that reported pIC50 rises from first to last. Note for the reader: the ranking is given by listing the labels in the order requested. a, b, e, c, d
(a: 5.87, b: 6.46, e: 7.25, c: 7.49, d: 8.00)

[I] CCc1c(F)ccc2cc(O)cc(-c3ncc4c(N5C[C@H](O)CC[C@H](O)C5)nc(OC[C@@]56CCCN5C[C@H](F)C6)nc4c3F)c12
[II] CCc1c(F)ccc2cc(O)cc(-c3ncc4c(N5CCC[C@@H](O)C5)nc(OC[C@@]56CCCN5C[C@H](F)C6)nc4c3F)c12
Lab log: flag the item ( I or II ) with the smaller pIC50 figure. Respond with the label that goes with your answer. I

[a] CN(C)C(=O)c1cc2n(n1)CCCN(c1nc(OC[C@@]34CCCN3C[C@H](F)C4)nc3c(F)c(-c4cc(O)cc5ccc(F)c(Br)c45)ncc13)C2
[b] O=C1NC(=O)C2(CCCN(c3nc(OC[C@@]45CCCN4C[C@H](F)C5)nc4c(F)c(-c5cc(O)cc6ccc(F)c(Br)c56)ncc34)C2)N1 (stereo partly drawn)
In the pair a and b , the larger recorded pIC50 belongs to which? // respond with label for picked entry a
(a: 7.72, b: 6.44)

----------
System: pERK in A549 cells
Assay protocol: Inhibition of KRas phosphorylation of ERK (Cisbio HTRF pERK assay)
Test settings: Homo sapiens, A549, read-out: Inhibition (HTRF IC50) of KRas-mediated Phosphorylation of ERK, A549
pIC50: −log10 of the molar value.
Endpoint: pIC50

Consider the reported pIC50 for these compounds:
* CCc1c(F)ccc2cc(O)cc(-c3ncc4c(N5CCCn6nc(C(=O)NC)cc6C5)nc(OC[C@@]56CCCN5C[C@H](F)C6)nc4c3F)c12 | 6.25
* CCc1c(F)ccc2cc(O)cc(-c3ncc4c(N5CCCc6nn(C(=O)N(C)C)cc6C5)nc(OC[C@@]56CCCN5C[C@H](F)C6)nc4c3F)c12 | 7.10
* CCc1c(F)ccc2cc(O)cc(-c3ncc4c(N5CCCC6(CCC(F)(F)C6)C5)nc(OC[C@@]56CCCN5C[C@H](F)C6)nc4c3F)c12 (stereo partly drawn) | 6.68
* C#Cc1c(F)ccc2cc(O)cc(-c3ncc4c(N5CCOCC(C)(O)C5)nc(OC[C@@]56CCCN5C[C@H](F)C6)nc4c3F)c12 (stereo partly drawn) | 6.54

[A] CCc1c(F)ccc2cc(O)cc(-c3ncc4c(N5CCOCC(C)(CO)C5)nc(OC[C@@]56CCCN5C[C@H](F)C6)nc4c3F)c12 (stereo partly drawn)
[B] Oc1cc(-c2ncc3c(N4CC5CC(O)C(C5)C4)nc(OC[C@@]45CCCN4C[C@H](F)C5)nc3c2F)c2c(Cl)c(F)ccc2c1 (stereo partly drawn)
[C] CCc1c(F)ccc2cc(O)cc(-c3ncc4c(N5CCCC6(CCC(O)C6)C5)nc(OC[C@@]56CCCN5C[C@H](F)C6)nc4c3F)c12 (stereo partly drawn)
Let's sort these by pIC50, smallest first. Go ahead? Order the labels as requested and give them as your answer. C, A, B
(C: 6.29, A: 6.58, B: 7.41)

Data origin, for the record: patent US12398154B2
